IC50 at 24 h reference
assay.protocol: Cytotoxicity against mouse L929 cells assessed reduction in cell viability incubated for 24 hrs by MTT assay
Format: toxicity, cell-based
endpoint.label: IC50 at 24 h (µM)

molecule: C=C(NC(=O)/C(C)=C/C=C\CCCCCC(C)C)C(=O)N/C(=C\OC)C(=O)OC
endpoint.label: IC50 at 24 h
measurement: 3.1
//
molecule: CC1=C(C[C@H](O)/C=C\C=C\[C@@H](C)[C@@H](O)/C(C)=C/CC(C)C)OC(C)(O)C1=O (stereo not given in full)
endpoint.label: IC50 at 24 h
measurement: 1
//
molecule: C=C(NC(=O)/C(C)=C/C=C\CCCCCCC)C(=O)N/C(=C\OC)C(=O)OC
endpoint.label: IC50 at 24 h
measurement: 3.1
//
molecule: C=C(NC(=O)/C(C)=C/C=C\CCCCC(C)C)C(=O)N/C(=C\OC)C(=O)OC
endpoint.label: IC50 at 24 h
measurement: 3.1
//
molecule: CC1=C(/C=C/C=C\C=C\[C@@H](C)[C@@H](O)/C(C)=C/CC(C)C)OC(C)(O)C1=O (stereo not given in full)
endpoint.label: IC50 at 24 h
measurement: 1
